The entries below are paired with their reported EC50.
- Experimental Target: T1, human CD40 expressed on cells (human, UniProt P25942 21-277)
- T1 construct: also called huCD40; Raji cells
- Method: flow cytometry, Raji cells;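 also: cell binding of antibodies to Raji cells detected by flow cytometry using an Alexa488-labelled anti-human IgG secondary antibody, primary incubation 1 h at 4 °C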
State the answer as a number, implicitly in µg/mL.

INSERT INTO results (binder, recorded_endpoint, result) VALUES
  ('P1AE1007, humanized anti-CD40 antibody VH1d/VL1b, huIgG1_LALA_PG (antibody, V domains shown, huIgG1 with effector silent Fc (P329G, L234A, L235A)) VH: QVQLVQSGAEVKKPGASVKVSCKASGYSFTGYYIHWVRQAPGQSLEWMGRVIPNAGGTSYNQKFKGRVTLSVDKSISTAYMELSRLRSDDTAVYYCAREGIYWWGQGTTVTVSS VL: DIVVTQTPLSLSVTPGQPASISCRSSQSLVHSNGNTFLHWYLQKPGQSPQLLIYTVSNRFSGVPDRFSGSGSGTDFTLKISRVEAEDVGVYFCSQTTHVPWTFGGGTKVEIK', 'EC50', 0.12);

// switching to the query binder
Form: binder = P1AE1005, humanized anti-CD40 antibody VH1b/VL1d, huIgG1_LALA_PG (antibody, V domains shown, huIgG1 with effector silent Fc (P329G, L234A, L235A)) VH: QVQLVQSGAEVKKPGASVKVSCKASGYSFTGYYIHWVRQAPGKSLEWMGRVIPNAGGTSYNQKFKGRVTLTVDKSISTAYMELSRLRSDDTAVYYCAREGIYWWGQGTTVTVSS VL: DVVVTQTPLSLSVTPGQPASISCRSSQSLVHSNGNTFLHWYLQKPGQSPQLLIYTVSNRFSGVPDRFSGSGSGTDFTLKISRVEAEDVGVYFCSQTTHVPWTFGGGTKLEIK ; EC50 = 0.11

Hey, just so you know, these numbers are from patent US20250320305A1.
